Where do these numbers come from? They come from patent US20260098080A1.

TESTED_TARGET: human MASP-2 (in normal human serum) (human, UniProt O00187 16-686)
Sequence (O00187 16-686 limits assumed): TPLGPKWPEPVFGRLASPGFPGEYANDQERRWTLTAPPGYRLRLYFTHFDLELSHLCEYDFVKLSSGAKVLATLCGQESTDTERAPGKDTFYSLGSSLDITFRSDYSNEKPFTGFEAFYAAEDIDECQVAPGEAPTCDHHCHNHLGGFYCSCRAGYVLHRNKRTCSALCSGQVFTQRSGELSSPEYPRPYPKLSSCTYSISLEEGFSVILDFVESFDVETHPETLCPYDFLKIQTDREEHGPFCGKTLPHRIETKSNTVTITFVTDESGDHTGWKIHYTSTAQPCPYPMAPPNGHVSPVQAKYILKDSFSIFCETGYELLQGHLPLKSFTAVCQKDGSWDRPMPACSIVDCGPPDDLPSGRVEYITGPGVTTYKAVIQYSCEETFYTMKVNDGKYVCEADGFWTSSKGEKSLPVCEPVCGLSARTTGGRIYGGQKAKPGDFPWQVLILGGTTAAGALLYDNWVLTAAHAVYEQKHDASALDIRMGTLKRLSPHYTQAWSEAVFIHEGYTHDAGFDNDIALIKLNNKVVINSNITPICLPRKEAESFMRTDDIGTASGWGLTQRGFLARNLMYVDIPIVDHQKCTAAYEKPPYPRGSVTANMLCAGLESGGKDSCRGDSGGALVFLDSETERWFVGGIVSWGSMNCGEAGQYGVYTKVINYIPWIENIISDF
EXPERIMENT_NOTES: cell-based or functional assay
Where no end group is shown, it is not given here.
Kindly state IC50, lectin pathway C4 deposition, human serum for each of the entries shown.
Please reply with the bare figure in nM and do not write the unit itself.

[Q] Given the entry EVO216 (designed binder, not fully specified; cysteine pairing not given here, Modified TFPI-D2 Kunitz domain; made as m1) KPDFCFLENDPGWCRAAKLRYFYNNQTKQCERFGYGGCLGNMNNFVTLEECKNICEDG , report its measured IC50, lectin pathway C4 deposition, human serum.
[A] 30.9

[Q] Given the entry EVO21a (designed binder, not fully specified; cysteine pairing not given here, Modified TFPI-D2 Kunitz domain; made as m1) KPDFCFLENDPGPCRAVKRRYFYNNQTKQCERFGYGGCLGNMNNFVTLEECKNICEDG , report its measured IC50, lectin pathway C4 deposition, human serum.
[A] 21.4

[Q] Given the entry EVO21 (designed binder, not fully specified; ends and bridges not checked, Modified TFPI-D2 Kunitz domain; made as m1) KPDFCFLENDPGPCRALKRRYFYNNQTKQCERFGYGGCLGNMNNFVTLEECKNICEDG , report its measured IC50, lectin pathway C4 deposition, human serum.
[A] 5.7

[Q] Given the entry EVO24 (designed binder, not fully specified; cysteine pairing not given here, Modified TFPI-D2 Kunitz domain; made as m1) KPDFCFLENDPGPCRALKRRYFYNNQTKQCERFYYGGCLGNMNNFETLEECKNICEDG , report its measured IC50, lectin pathway C4 deposition, human serum.
[A] 7.6
